# system.tested: Polyunsaturated fatty acid 5-lipoxygenase (Homo sapiens)
# Sequence (P09917 whole entry): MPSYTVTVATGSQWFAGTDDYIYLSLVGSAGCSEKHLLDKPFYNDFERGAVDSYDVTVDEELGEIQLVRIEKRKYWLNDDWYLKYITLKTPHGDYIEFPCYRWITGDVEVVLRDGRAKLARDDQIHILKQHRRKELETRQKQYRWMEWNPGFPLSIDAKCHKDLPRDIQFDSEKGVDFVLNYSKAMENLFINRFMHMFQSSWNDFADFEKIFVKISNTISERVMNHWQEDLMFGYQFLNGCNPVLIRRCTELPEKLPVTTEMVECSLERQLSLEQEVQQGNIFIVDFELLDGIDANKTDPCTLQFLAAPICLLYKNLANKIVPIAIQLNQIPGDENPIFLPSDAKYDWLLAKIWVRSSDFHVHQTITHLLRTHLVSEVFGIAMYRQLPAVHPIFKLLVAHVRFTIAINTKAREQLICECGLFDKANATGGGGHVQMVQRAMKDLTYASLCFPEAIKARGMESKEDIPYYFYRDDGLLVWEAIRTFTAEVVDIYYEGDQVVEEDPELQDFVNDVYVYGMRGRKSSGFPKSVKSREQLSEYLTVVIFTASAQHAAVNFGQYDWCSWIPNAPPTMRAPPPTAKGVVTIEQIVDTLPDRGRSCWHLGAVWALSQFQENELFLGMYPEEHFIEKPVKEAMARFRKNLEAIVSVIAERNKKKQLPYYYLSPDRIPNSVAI
# assay.details: Inhibition of recombinant human 5-LO expressed in Escherichia coli BL21 (DE3) using arachidonic acid as substrate preincubated for 10 mins followed by CaCl2 and substrate addition measured after 10 mins by RP-HPLC analysis
Reported values of IC50 for individual entries
measured.endpoint: IC50 (µM)

structure_notation=O=C(O)CCc1ccc(N(Cc2ccc3ccccc3c2)S(=O)(=O)c2ccc(-c3ccccc3)cc2)cc1 system_tested="Polyunsaturated fatty acid 5-lipoxygenase (Homo sapiens)" quantity_unit=µM endpoint_result=5.5
structure_notation=O=C(O)c1ccc(N(Cc2cccc(Oc3ccccc3)c2)S(=O)(=O)c2ccc(Oc3ccccc3)cc2)cc1 system_tested="Polyunsaturated fatty acid 5-lipoxygenase (Homo sapiens)" quantity_unit=µM endpoint_result=6
structure_notation=CC(C)(C)C#Cc1ccc(S(=O)(=O)N(Cc2ccc(C(C)(C)C)cc2)c2ccc(C(=O)O)cc2)cc1 system_tested="Polyunsaturated fatty acid 5-lipoxygenase (Homo sapiens)" quantity_unit=µM endpoint_result=2.3
structure_notation=O=C(O)Cc1ccc(N(Cc2ccc3ccccc3c2)S(=O)(=O)c2ccc(-c3ccccc3)cc2)cc1 system_tested="Polyunsaturated fatty acid 5-lipoxygenase (Homo sapiens)" quantity_unit=µM endpoint_result=8.7
structure_notation=CC(C)(C)c1ccc(CN(c2ccc(C(=O)O)cc2)S(=O)(=O)c2ccc(-c3ccccc3)cc2)cc1 system_tested="Polyunsaturated fatty acid 5-lipoxygenase (Homo sapiens)" quantity_unit=µM endpoint_result=5.6
structure_notation=O=C(O)c1ccc(N(Cc2cccc(Oc3ccccc3)c2)S(=O)(=O)c2ccc(-c3ccccc3)cc2)cc1 system_tested="Polyunsaturated fatty acid 5-lipoxygenase (Homo sapiens)" quantity_unit=µM endpoint_result=7.2
structure_notation=O=C(O)c1ccc(N(Cc2ccc3ccccc3c2)S(=O)(=O)c2ccc(-c3ccccc3)cc2)cc1 system_tested="Polyunsaturated fatty acid 5-lipoxygenase (Homo sapiens)" quantity_unit=µM endpoint_result=6.4
structure_notation=CCCCCCCCN(c1ccc(C(=O)O)cc1)S(=O)(=O)c1ccc(-c2ccccc2)cc1 system_tested="Polyunsaturated fatty acid 5-lipoxygenase (Homo sapiens)" quantity_unit=µM endpoint_result=5.2
structure_notation=O=C(O)c1ccc(N(Cc2ccc(OCc3ccccc3)cc2)S(=O)(=O)c2ccc(-c3ccccc3)cc2)cc1 system_tested="Polyunsaturated fatty acid 5-lipoxygenase (Homo sapiens)" quantity_unit=µM endpoint_result=6.6
structure_notation=O=C(O)c1ccc(N(Cc2cccc(OCc3ccccc3)c2)S(=O)(=O)c2ccc(-c3ccccc3)cc2)cc1 system_tested="Polyunsaturated fatty acid 5-lipoxygenase (Homo sapiens)" quantity_unit=µM endpoint_result=2.3

###

# system.tested: UniProt:P09917
# assay.details: Inhibition of 5-LO in human neutrophils using arachidonic acid as substrate assessed as reduction in 5-LO product formation preincubated for 15 mins followed by substrate addition measured after 10 mins in presence of Ca2+ ionophore A23187 by HPLC analysis
pIC50: −log10 of the molar value.
Recorded pIC50 values for a group of compounds are listed next.
measured.endpoint: pIC50

structure_notation=COc1cccc(CN(c2ccc(C(=O)O)cc2)S(=O)(=O)c2ccc(-c3ccccc3)cc2)c1 endpoint_result=5.89
structure_notation=CCCCCCN(c1ccc(C(=O)O)cc1)S(=O)(=O)c1ccc(-c2ccccc2)cc1 endpoint_result=5.82
structure_notation=O=C(O)c1ccc(N(Cc2ccc3c(c2)OCO3)S(=O)(=O)c2ccc(-c3ccccc3)cc2)cc1 endpoint_result=5.49
structure_notation=O=C(O)c1ccc(N(Cc2cccc(Oc3ccccc3)c2)S(=O)(=O)c2ccc(-c3ccccc3)cc2)cc1 endpoint_result=6.52
structure_notation=O=C(O)c1ccc(N(Cc2cccc(Oc3ccccc3)c2)S(=O)(=O)c2ccc(Oc3ccccc3)cc2)cc1 endpoint_result=6.00
structure_notation=O=C(O)c1ccc(N(CC2CCCCC2)S(=O)(=O)c2ccc(Oc3ccccc3)cc2)cc1 endpoint_result=5.27
structure_notation=O=C(O)Cc1ccc(N(Cc2ccc3ccccc3c2)S(=O)(=O)c2ccc(-c3ccccc3)cc2)cc1 endpoint_result=5.47
structure_notation=Cc1ccc(S(=O)(=O)N(Cc2ccc3ccccc3c2)c2ccc(C(=O)O)cc2)cc1 endpoint_result=5.32
structure_notation=CC(C)(C)c1ccc(CN(c2ccc(C(=O)O)cc2)S(=O)(=O)c2ccc(-c3ccccc3)cc2)cc1 endpoint_result=6.52
